Entries and their measured melting point follow.

Q: Which melting point value belongs to `Cc1ccc(Cc2cnc(NCCCN(C)c3ncc(Br)cn3)[nH]c2=O)cn1` ?
Result: 137 to 140 °C

Q: Which melting point value belongs to `CCOC(=O)CSc1nc(Cl)cc(NCCc2ccc(Cl)cc2)n1` ?
Result: 68 to 70 °C

Q: Which melting point value belongs to `COc1cccc2c1C[C@H]1C[C@@H](CN3CCC(NC(=O)C(c4ccccc4)c4ccccc4)CC3)CN(C)[C@@H]1C2` ?
Result: 219 to 222 °C

New cases:
Q: Which melting point value belongs to `Cc1cc(-n2ccc(=O)[nH]c2=O)cc(Cl)c1Sc1ccc(Cl)cc1` ?
Result: 150 to 160 °C

Q: Which melting point value belongs to `CC(=O)OCC1=C(c2ccccc2)C(=O)N(C(C)(C)C(=O)Nc2cccc(C(F)(F)F)c2)CO1` ?
Result: 76.5 to 77.5 °C

Q: Which melting point value belongs to `Cc1c(Cl)sc2[nH]c(=O)c(-c3ccccc3)c(O)c12` ?
Result: 105 to 107 °C

Q: Which melting point value belongs to `CC(=O)N[C@H]1C=C[C@@H](CO)C1` ?
Result: 77 to 80 °C

Q: Which melting point value belongs to `CCOC(=O)C1=C(O)c2cc(OC)c(OC)cc2NC(=O)C1` ?
Result: 218 °C

Q: Which melting point value belongs to `O=C(CC(c1ccccc1)(c1ccccc1)c1ccccc1)Nc1ccc(N2CCNCC2)cc1` ?
Result: 193 to 195 °C

Q: Which melting point value belongs to N#CC1=C(C2CCCN2)Nc2n[nH]cc2C1c1cccc2nonc12 (stereo unspecified) ?
Result: > 240 °C

Q: Which melting point value belongs to `CNc1nc(NC)c2ncn(COC(CO)CO)c2n1` ?
Result: 198 °C

----------
Entries and their measured melting point follow.

Here is how some molecules turned out for melting point.
Q: Which melting point value belongs to `COc1cccc(N=C(NC#N)Oc2ccccc2)c1` ?
Result: 170 to 171 °C

Q: Which melting point value belongs to `CCOC(=O)C1=C(C)NC(C)=C(C(=O)OCC)C1c1cccc(Cl)c1` ?
Result: 142 to 144 °C

Q: Which melting point value belongs to `Cc1ccc(N2CCN(c3c(C)c(C)c4c(c3C)CC(C)(C)O4)CC2)cc1` ?
Result: 152 to 155 °C

Q: Which melting point value belongs to `Brc1ccc(-c2ccc(I)cc2)cc1` ?
Result: 177 to 179 °C

Q: Which melting point value belongs to `CC1(C)C(=O)Oc2ccc3ccc(Cn4cnnc4)cc3c21` ?
Result: 256 to 257 °C

Q: Which melting point value belongs to CC(=O)SCC1(C)C(=O)N2CCCC(C(=O)OC(C)(C)C)N2C1=O (centres undefined) ?
Result: 78 to 79 °C

Now look at this entry.
Q: Which melting point value belongs to `COc1c(C)c(OC(=O)c2c(C)c(C)c(OCCCOc3ccc(F)cc3)c(C)c2OC)c(C)c(C)c1C(N)=O` ?
Result: 146 to 149 °C

----------
Entries and their measured melting point follow.

Here is how some compounds turned out for melting point.
Q: Which melting point value belongs to `O=C(NNc1ccc(NC(=S)NCc2ccccc2)cc1)c1ccc(Cl)cc1` ?
Result: 197 to 199 °C

Q: Which melting point value belongs to `CCOC(=O)c1cn(-c2csnn2)c2cc(F)c(F)cc2c1=O` ?
Result: 198 to 203 °C

Q: Which melting point value belongs to COC(=O)C(OC)c1ccc2nc(-c3ccc(Cl)cc3)oc2c1 (configuration not stated) ?
Result: 131 to 132 °C

Q: Which melting point value belongs to `ClC1=Nc2cc(Cl)ccc2Sc2cscc21` ?
Result: 234 to 235 °C

Q: Which melting point value belongs to O=c1nc(-c2cccc(Cl)c2)c2cc(C(c3ccc(Cl)cc3)n3ccnc3)ccc2n1Cc1ccncc1 (configuration not stated) ?
Result: 61.4 °C

Q: Which melting point value belongs to CC(=O)OC1C(C)OC(n2cc(F)c(=O)[nH]c2=O)C1OC(C)=O (configuration not stated) ?
Result: 176 to 177 °C

New cases:
Q: Which melting point value belongs to CC(CCCC(=O)O)NC(=O)C(C)S (configuration not stated) ?
Result: 78 to 79 °C

Q: Which melting point value belongs to CC1(c2ccccc2)SC(=S)N(Nc2ccccc2)C1=NO (configuration not stated) ?
Result: 83 to 84 °C

Q: Which melting point value belongs to `CCCn1c(=O)c2[nH]c(-c3cc(C)n(CC(=O)Nc4ccc(Cl)c(Cl)c4)n3)nc2n(CCC)c1=O` ?
Result: 298 °C

Q: Which melting point value belongs to `CN1CCN(c2ccc(-c3[nH]nc4c3C(=O)c3c(NC(=O)NN5CCOCC5)cccc3-4)cc2)CC1` ?
Result: 245 °C

Q: Which melting point value belongs to `COc1cc(Nc2nc3cccc(-c4cccc(Cl)c4)c3o2)cc(OC)c1OC` ?
Result: 199 to 201 °C

Q: Which melting point value belongs to `COc1cc(C)c(N)c(C)c1Cc1ccc(C(C)C)cc1` ?
Result: 91 to 92 °C

Q: Which melting point value belongs to `CCc1c2c(nn1CC)c(N)nc1ccccc12` ?
Result: 234 to 236 °C

Q: Which melting point value belongs to COc1ccc(NC(=O)c2ccc(-c3ccc(S(C)=O)cc3)c(C)c2)cc1N1CCN(C)CC1 (configuration not stated) ?
Result: 210 to 212 °C

Q: Which melting point value belongs to `NS(=O)(=O)c1ccc(-c2cnn(Cc3ccccc3)c(=O)c2-c2ccc(F)cc2)cc1` ?
Result: 185 to 189 °C

Q: Which melting point value belongs to Cc1oc(-c2ccc(Cl)cc2)nc1COc1cccc(/C=C/C(C)N(O)C(N)=O)c1 (configuration not stated) ?
Result: 98 to 99 °C

Q: Which melting point value belongs to `CN1CC(C(=O)N(C)C(Cc2ccc(Cl)cc2)Cc2ccc(Cl)cc2)=C(O)C1=O` ?
Result: 152 to 154 °C

Q: Which melting point value belongs to CC1=C(C#N)S(=O)c2ccc(C(F)(F)F)cc2N1 (configuration not stated) ?
Result: 290 to 292 °C

Q: Which melting point value belongs to CC1CN(c2c(F)cc3c(=O)c(C(=O)O)cn(C4CC4)c3c2F)CC1CN (configuration not stated) ?
Result: 249 to 252 °C

Q: Which melting point value belongs to `CN1C(=S)Cc2ccccc21` ?
Result: 108 to 109 °C

Q: Which melting point value belongs to `O=C(O)CCc1c[nH]c2c(C(=O)c3ccc(Cl)cc3)cccc12` ?
Result: 190 to 202 °C

Q: Which melting point value belongs to `Cc1c(/C=C/c2ccccc2)nc2ccc(C(=O)O)cn2c1=O` ?
Result: 312 to 313 °C
